# System: SK-MEL-2 melanoma
# TEST SUMMARY: NCI-60 one-dose screen, 48 h (100 = growth as untreated, 0 = no growth, -100 = all killed)
# CONDITION NOTES: 10 µM
The panel holds about 83,000 compounds, 20% with a hit somewhere; the sample as a whole holds those more often.
Threshold check on growth: strictly below 90% is yes; on or above 90% is no.

COMPOUND | CLASS
COc1cc(C2CC(=O)Nc3c2c(C)nn3-c2nc3ccccc3[nH]2)cc(OC)c1O (stereo not drawn) | yes
CCOC(=O)c1ccc(N(C=O)CCC(=O)CCl)cc1 | yes
CC(C)/C(=N/O)c1ccccc1 | no
O=C(O)CN1C(=O)C=CC1=O | no
C=CCOc1ccc2c(c1)CC=C1[C@@H]2CC[C@]2(C)C(=O)/C(=N/O)C[C@@H]12 | no
CCCCCC(CCC)COC(=O)c1ccc(OC)cc1 (stereo not drawn) | no
COc1ccc(C2C=C(c3ccc(Cl)cc3)N=C3SC=CN32)c(Br)c1 (stereo not drawn) | yes
CCN(CC)CC(O)Cc1ccc(OC)cc1 (stereo not drawn) | no
COc1ccc(S(=O)(=O)Nc2cc(/C=C\c3cc(OC)c(OC)c(OC)c3)ccc2OC)cc1 | yes
CC(C)OP(=O)(O)c1ncc(-c2ccc(C(F)(F)F)cc2)c(NC2CCCCCC2)n1 | yes
CCOCC[P+](c1ccccc1)(c1ccccc1)c1ccccc1 | yes
COc1cc(-c2cc(-c3ccc(C)cc3)nc3nc(N)[nH]c(=O)c23)ccc1Oc1ccnc2cc(Cl)ccc12 | no
COc1ccc(-c2oncc2-c2cc(OC)c3c(c2)OCO3)cc1 | yes
COc1ccc(COC(=O)CC(C)C)cc1 | no
N/C(=N\O)c1cn(C2OC(CO)C(O)C2O)c2ncnc(N)c12 (stereo not drawn) | yes
COc1ccc(/C(=C/c2cc(OC)c(OC)cc2[N+](=O)[O-])C(=O)O)cc1 | no
C=C1C(=O)O[C@H]2[C@H]1CC/C(COC(=O)OCCCCCOC(=O)OC/C1=C/CC[C@@]3(C)O[C@H]3[C@H]3OC(=O)C(=C)[C@@H]3CC1)=C\CC[C@@]1(C)O[C@@H]21 | yes
NC1CCC(Nc2nc(NCc3ccc(-c4ccccc4O)nc3)c3ncn(C4CCCC4)c3n2)CC1 (stereo not drawn) | yes
Nc1cc(O)cc(O)c1 | no
C=CCn1ccc(=O)nc1SC | no
CS(=O)(=O)Nc1ccc(Nc2c3ccccc3nc3cc(Cl)ccc23)cc1 | yes
COc1ccc(C(C)=O)cc1N1C(=O)C2C(C1=O)C1(c3ccccc3)C(=O)C2(c2ccccc2)C(c2ccc(C)cc2)=C1c1ccc(C)cc1 (stereo not drawn) | yes
O=C(O)c1cc(C(F)(F)F)cc(C(F)(F)F)c1 | no
C=CCN1C(=O)/C(=C\c2ccc3c(c2)CCC3)SC1=S | no
c1ccc(CC(NCCNC(Cc2ccccc2)c2ccccc2)c2ccccc2)cc1 (stereo not drawn) | yes
COc1cccc(-c2nnc(COc3ccc(-c4nc5ccc(C)cc5[nH]4)cc3OC)o2)c1 | no
COc1nc2c(c(=O)[nH]1)C(c1ccc(Oc3ccnc4cc(Cl)ccc34)c(OC)c1)C=C(c1cc(OC)c(OC)c(OC)c1)N2 (stereo not drawn) | yes
CCC(O)c1ccc(Br)cc1NC(=O)c1cccc(Cl)c1 (stereo not drawn) | yes
N=C(N)c1ccc(-c2ccc(-c3ccccc3)s2)s1 | yes
COc1cc(Nc2ccnc(N3CCN(c4ccnc5cc(Cl)ccc45)CC3)n2)cc(OC)c1 | yes
O=C(NCCCl)c1cc(Cl)cc(Cl)c1 | no
CCCCCCCCCCCCc1ccc(C(=O)/C=C/C(=O)O)cc1 | no
COc1cccc(-c2nnc(COc3ccc(-c4nc5ccccc5[nH]4)cc3OC)o2)c1 | no
N#Cc1c(-c2ccccc2)nc(SCC(=O)N2CCOCC2)[nH]c1=O | no
COc1ccc2c(=O)cc(C(Cl)(Cl)Cl)oc2c1 | yes
COc1cc(-c2nc3cc(Cl)c(Cl)cc3[nH]2)ccc1OCC(=O)NN | no
CCOc1ccc(-n2cc(-c3ccc(N(C)C)cc3)[n+]3c2CCCCC3)cc1 | yes
